experiment_notes: Toxicity liver stage against HepG2, at 10uM
Format: cell-based
Parameters: test concentration 10 uM, cell line HepG2-A16-CD81EGFP
stated_conditions: human, HepG2-A16-CD81EGFP cells; read-out: INHIBITION
measure: cytotoxicity at 10 µM (%)
Give the value in % but do not write % after it.

IN: What measured cytotoxicity at 10 µM goes with O=C(NCc1ccc(CN2CCCC2)cc1)NCc1ccon1 ?
OUT: -0.145

IN: Look up cytotoxicity at 10 µM: Cc1nc(C)n(C2CCCN(C(=O)c3ccc(F)cc3F)C2)n1 (stereo unspecified)
OUT: -2.9

IN: Find the recorded cytotoxicity at 10 µM belonging to Cc1ccc(NC(=O)NCCCc2n[nH]c(N)c2C#N)cc1 and report it.
OUT: -4.71

IN: Any idea what cytotoxicity at 10 µM was measured for c1[nH]c(CC2CCCC2)nc1CN1CCCC2(CCOC2)C1 (stereo unspecified) ?
OUT: -9.12

IN: Please look up its cytotoxicity at 10 µM: CSCCc1c(-c2ccccc2)ncn1CCNc1cccnc1
OUT: 5.29

IN: For the molecule Cc1[nH]c2c(F)cccc2c1CC(=O)N1CCN(C2CCSCC2)CC1 , what cytotoxicity at 10 µM is on record?
OUT: 4.82

IN: Which cytotoxicity at 10 µM reading was recorded for the molecule Cn1ccc(NC(=O)CN2C[C@@H]3CC[C@H]2CN(Cc2ccccn2)C3)n1 ?
OUT: 0.936

IN: Give its cytotoxicity at 10 µM value. Item: CN1[C@H](CN2CCCC2)C[C@@H]2CN(C(=O)Cc3ccsc3)CC[C@@H]21
OUT: -3.45

IN: Query (molecule): COCCCN1CCN(CC2CCCO2)CC1 (stereo unspecified) ; field requested: cytotoxicity at 10 µM
OUT: -13.5

IN: Query: cytotoxicity at 10 µM; subject: O=C(NC1CC1)c1ccn(COc2c(Cl)cccc2Cl)n1
OUT: 7.36

IN: Look up cytotoxicity at 10 µM: N#Cc1ccnc(N2CCC(c3nccn3Cc3cscn3)CC2)c1
OUT: -12.4

###

experiment_notes: Toxicity liver stage against HepG2, at 10uM
Assay type: cell-based
Design: test concentration 10 uM, cell line HepG2-A16-CD81EGFP
stated_conditions: human, HepG2-A16-CD81EGFP cells; read-out: INHIBITION
measure: cytotoxicity at 10 µM (%)
Give your result in % as a bare value.

IN: GET /values?readout=cytotoxicity at 10 µM&item= Cc1nc(O)cc(C2CCCN(Cc3c(Cl)cncc3Cl)C2)n1 (stereo not drawn)
OUT: -5.4

IN: Sample Cc1ccoc1C(=O)N1CCCc2c(c(=O)n(C)n2C)C1 — what was its cytotoxicity at 10 µM?
OUT: 11.7

IN: Please give the measured cytotoxicity at 10 µM for this compound: COc1nc2ccn(CCc3cnccn3)c(=O)c2cc1C#N
OUT: 54.1

IN: What value of cytotoxicity at 10 µM has been recorded for this entry: Cc1noc([C@H]2C[C@H]3OCC[C@H]3N(Cc3ccc4c(c3)OCO4)C2)n1
OUT: 2.67

IN: I would be grateful if you could share the reported cytotoxicity at 10 µM for COc1cc(N2CC[C@@H]3O[C@@H](C(=O)NCCN(C)C)C[C@@H]32)ncn1 .
OUT: 0.588

IN: Item under review: COc1cc(C(C)NCc2ncccc2C)ccc1SC(F)F (stereo not drawn) . Reported cytotoxicity at 10 µM?
OUT: -8.47

IN: I have this compound here, COc1cc(NC(=O)c2cc(Cl)ccc2F)c(C(=O)N(C)C)cc1OC , and I need its recorded cytotoxicity at 10 µM.
OUT: -2.61

IN: What does the data say about its cytotoxicity at 10 µM? Entry: Cc1cc(C(=O)N[C@H]2CN(CCO)C[C@@H]2C2CC2)sc1C
OUT: 1.18

IN: Reported cytotoxicity at 10 µM for Cn1c(CN2CCCC(Cn3cncn3)C2)nc2ccccc21 (stereo not drawn) : what is it?
OUT: -6.78

IN: Could you share which cytotoxicity at 10 µM value was measured for CCc1nc2n(n1)CC(NCc1noc(-c3ccccc3)n1)CC2 (stereo not drawn) ?
OUT: -10.6

IN: Field request: cytotoxicity at 10 µM | item: Cc1ccc(C(=O)NCCCN(C(C)C)S(C)(=O)=O)c(=O)[nH]1
OUT: -8.04

IN: Field request: cytotoxicity at 10 µM | item: Cc1nc(O)cc(C2(C)CCCNC2)n1 (stereo not drawn)
OUT: 2.98

IN: # cytotoxicity at 10 µM lookup, item COc1ccc2c(ccn2CCC(=O)NCc2ccc(C(=O)O)cc2)c1
OUT: 2.25

IN: Entry Cc1ccc(CN2CCC(n3cc(C(O)c4ccccc4)nn3)CC2)o1 (stereo not drawn) : reported cytotoxicity at 10 µM = ?
OUT: 2.11

IN: // lookup cytotoxicity at 10 µM for FC1(F)CCN(Cc2cccnc2)CC12CCN(c1ccccc1)C2 (stereo not drawn)
OUT: -84.5

IN: # lookup: cytotoxicity at 10 µM of Cc1cc(NCCc2cnccn2)nc(-c2ccccc2O)n1
OUT: 10.9

IN: Consider the compound shown here: O=S(=O)(c1ccc(Cl)cc1)N1CCc2nc(C3CCNCC3)ncc2C1 What is its recorded cytotoxicity at 10 µM?
OUT: -17.3

IN: Need cytotoxicity at 10 µM, item O=C([C@@H]1CC[C@@H]2[C@@H](CCN2Cc2ccoc2)O1)N1CCCC1
OUT: -10.2

IN: Please look up its cytotoxicity at 10 µM: Cc1ccc(NC2CCN(C(=O)COc3cccnc3)CC2)nn1
OUT: 1.3

IN: For the compound shown here, Cc1ccc(N2CCCC(N(C)Cc3c(C)noc3C)C2)nn1 (stereo not drawn) , give the reported cytotoxicity at 10 µM.
OUT: -14

IN: What value of measured cytotoxicity at 10 µM is listed for CCN1CCOC(CNCc2ccc(OC)c(F)c2)C1 (stereo not drawn) ?
OUT: 1.79

IN: Using the record for O=C(c1ccnnc1)N1CCC2(CC1)CN(c1ccccn1)CCO2 , report its cytotoxicity at 10 µM.
OUT: -81.5

IN: Reported cytotoxicity at 10 µM, compound COc1cccc2c1OCC(CNC(=O)Cc1cnccn1)C2 (stereo not drawn) : ____
OUT: -145
